tested target: recombinant human Meningioma Expressed Antigen 5 (MGEA5), also referred to as O-GlcNAcase (OGA) (Homo sapiens, UniProt O60502)
Construct: Full length OGA enzyme was purchased at OriGene (cat # TP322411); purchased OriGene TP322411
Sequence (O60502 1-916): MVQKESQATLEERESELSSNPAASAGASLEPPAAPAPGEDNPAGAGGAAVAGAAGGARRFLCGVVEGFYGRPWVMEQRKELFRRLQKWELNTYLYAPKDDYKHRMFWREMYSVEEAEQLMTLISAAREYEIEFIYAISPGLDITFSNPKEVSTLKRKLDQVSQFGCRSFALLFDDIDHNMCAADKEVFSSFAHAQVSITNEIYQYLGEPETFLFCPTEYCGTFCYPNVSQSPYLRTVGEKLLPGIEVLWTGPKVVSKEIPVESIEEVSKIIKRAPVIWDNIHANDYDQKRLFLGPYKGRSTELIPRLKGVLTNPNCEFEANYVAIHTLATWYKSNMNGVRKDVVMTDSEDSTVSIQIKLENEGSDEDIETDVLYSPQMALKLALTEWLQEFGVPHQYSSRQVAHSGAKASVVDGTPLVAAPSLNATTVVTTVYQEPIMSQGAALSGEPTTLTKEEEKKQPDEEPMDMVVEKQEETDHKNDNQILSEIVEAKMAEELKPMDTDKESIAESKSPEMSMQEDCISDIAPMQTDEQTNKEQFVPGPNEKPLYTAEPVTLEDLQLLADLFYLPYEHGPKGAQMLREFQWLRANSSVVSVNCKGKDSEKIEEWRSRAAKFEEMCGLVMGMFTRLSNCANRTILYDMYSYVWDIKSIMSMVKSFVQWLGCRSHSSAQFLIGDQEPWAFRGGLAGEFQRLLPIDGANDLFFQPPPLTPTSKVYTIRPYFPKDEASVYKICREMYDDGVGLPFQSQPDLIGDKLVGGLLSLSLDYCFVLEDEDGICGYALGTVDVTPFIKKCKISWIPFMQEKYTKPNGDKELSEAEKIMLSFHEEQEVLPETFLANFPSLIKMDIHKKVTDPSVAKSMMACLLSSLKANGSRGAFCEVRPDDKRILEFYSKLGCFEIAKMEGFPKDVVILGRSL
measurement protocol: OGA biochemical assay (inhibition of FM-GlcNAc hydrolysis, fluorescence)
recorded conditions: read-out: ENZYMATIC Emax (%)
measurement kind: Emax (%)

* CC(=O)Nc1ncc(CN2CCC3(CCN(c4cc(C)cnc4C)C3)C2)s1 (stereo not drawn) | 101
* Cc1cc(N2CCC3(CCN(C(C)c4ccc5scnc5c4)C3)C2)cc(C)n1 (stereo not drawn) | 101
* CC(=O)Nc1ncc(CN2CCC3(CCN(c4cnccn4)C3)C2)s1 (stereo not drawn) | 99.1
* COc1nc(C)ccc1N1CCC2(CCN(Cc3cnc(NC(C)=O)s3)C2)C1 (stereo not drawn) | 97.1
* CCc1cncc(N2CCC3(CCN(Cc4cnc(NC(C)=O)s4)C3)C2)n1 (stereo not drawn) | 102
* CC(=O)Nc1ncc(CN2CCC3(CCN(c4ccnc(C)c4)C3)C2)s1 (stereo not drawn) | 100
* CC(=O)Nc1ncc(CN2CCC3(CCN(c4cncnc4)C3)C2)s1 (stereo not drawn) | 99.8
* CC(=O)Nc1ncc(CN2CCC3(CCN(c4ccnc(C(F)(F)F)c4)C3)C2)s1 (stereo not drawn) | 101
* c1cnc2cc(CN3CCC4(CCN(c5cncc(C6CC6)n5)C4)C3)ccc2n1 (stereo not drawn) | 94.2
